Hello, the source for this data is PubChem BioAssay, in case you need it.

System: Human papillomavirus type 1a E7 protein (residues 1-88)
Experiment: HPV1a E7 small-molecule binders, primary screen, biochemical, small-molecule microarray, residues 1-88, 635 nm (AID 1129)
Conditions: small-molecule microarray binding, fluorescence 635 nm; higher = more signal
propertyMeasured: composite z-score
Respond using a number only.

So what's the measured composite z-score for this one? Cc1ccc(S[C@]2(C(=O)NCCN3CCOCC3)CC(=O)N(Cc3cc(C(F)(F)F)cc(C(F)(F)F)c3)[C@@H]2c2ccc(CO)cc2I)cc1
-0.27

Also CO[C@H]1O[C@H](CO)[C@@H](OC(=O)Nc2ccc3c(c2)OCO3)[C@H](OC(=O)Nc2ccccc2)[C@H]1OC(=O)Nc1ccccc1 , if possible.
1.28

Entry COc1ccc([Si](C)(C)[C@H]2[C@H](CCn3cc([C@H](O)c4ccccc4)nn3)O[C@@]3(C(=O)N(Cc4cccc(N5CCC5=O)c4)c4ccccc43)[C@@H]2C)cc1 please
0.302

Likewise for COC(=O)C[C@H]1O[C@]2(C(=O)N(Cc3ccccc3)c3ccc(NC(C)=O)cc32)[C@@H](C)[C@@H]1[Si](C)(C)c1ccc(OC)cc1 ?
0.822

Follow-up item: O=C1C2C=CC(C(O)c3ccc(-c4ccccc4)s3)N(n3cnnc3)C2C(=O)N1Cc1ccccc1 (stereo not given)
-0.283

CC(C)Cc1ccc(CN2CC[C@@H](NS(=O)(=O)c3ccccc3)C2)cc1 ?
-0.593

And the next one, COCCOC(=O)N1C(=O)[C@@]2(c3cc(C#CCNC(N)=O)ccc31)[C@H](C(=O)N1CCN(c3ncccn3)CC1)[C@H]1C(=O)O[C@H](c3ccccc3)[C@H](c3ccccc3)N1[C@@H]2c1ccccc1OCCO ?
1.07

Another molecule: O=C1O[C@H](c2ccccc2)[C@H](c2ccccc2)N2[C@H]1[C@@H](C(=O)Nc1nc3ccccc3s1)[C@]1(C(=O)Nc3ccccc31)[C@H]2c1ccc(O)cc1
1.24

// query: CCOc1cc(C(O)C2C=CC3C(=O)N(c4ccccc4)C(=O)C3N2Nc2ccc([N+](=O)[O-])cc2)ccc1O (stereo not given)
1.06

Another molecule: O=C1N(CCS(=O)(=O)c2ccccc2)Cc2ccccc2[C@H]2OC(c3ccc(OCCCO)cc3)=N[C@@]12CCS(=O)(=O)c1ccccc1
1.21

Can you handle CC(C)C[C@@H]1NC(=O)[C@H]2C[C@@H](C(=O)NCCCCCNC(=O)CS)[C@@H](c3cccc(OCCO)c3)N2C1=O next?
1.21

Continue with CCCCC=C[C@@H](NC(=O)c1ccco1)c1ccccc1
-1.19

What do you have for C=C[C@H](COC(C)=O)N(Cc1ccc(OC(C)=O)c(OC)c1)S(=O)(=O)c1ccc(Br)cc1 ?
1.12

Okay, and CCCCC=C[C@@H](NC(=O)c1cccs1)c1ccccc1 ?
0.837

Can you handle O=C1C2C=CC(C(O)c3ccc(B(O)O)cc3)N(Nc3ccccc3)C2C(=O)N1c1ccccc1 (stereo not given) next?
-0.935
